Molecular target: T1, Pyrococcus horikoshii elongation factor aEF1A (PhoEF1A) (P. horikoshii, UniProt O59153 1-428)
T1 construct: elongation factor 1-alpha (aEF1A) of Pyrococcus horikoshii; the nucleotide is named in the assay's format; also called PhoEF1A•GTP; PhoEF1A•GDP
T1 sequence: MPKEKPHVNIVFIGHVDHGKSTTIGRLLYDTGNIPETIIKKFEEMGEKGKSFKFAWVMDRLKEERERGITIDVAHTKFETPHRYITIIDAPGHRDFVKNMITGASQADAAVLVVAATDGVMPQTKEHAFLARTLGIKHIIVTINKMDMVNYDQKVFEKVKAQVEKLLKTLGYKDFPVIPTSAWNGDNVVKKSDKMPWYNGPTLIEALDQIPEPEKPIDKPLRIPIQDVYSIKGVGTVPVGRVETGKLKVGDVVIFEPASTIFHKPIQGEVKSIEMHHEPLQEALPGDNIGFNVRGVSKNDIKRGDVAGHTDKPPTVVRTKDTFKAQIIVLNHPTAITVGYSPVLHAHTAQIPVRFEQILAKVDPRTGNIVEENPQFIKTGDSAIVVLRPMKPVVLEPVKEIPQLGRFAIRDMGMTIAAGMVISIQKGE
Test: fluorescence polarisation; FITC-labelled PhoP1C14 with increasing PhoEF1A•GDP complex; same assay as for the GTP complex
Conditions: both partners purified
Primed or numbered codes have the meaning given here. Where no end group is shown, it is not given here. FITC′ = fluorescein isothiocyanate label
readout: Kd (µM)
Express it in µM; write the number only.

-- ask Using the record for {FITC′}-SEEEALAGLSALFG (C-terminal 14 residues of P. horikoshii ribosomal stalk protein aP1 (last residues L106, F107, G108); also called WT; C-terminal peptide; source: synthetic peptide (Hokkaido System Science)) [C-terminal 14-mer peptide of P. horikoshii aP1 (PhoP1C14), FITC-labelled] , state its measured Kd.
-- reply 10.4
